Tested on: RmlC (dTDP-4-dehydrorhamnose 3,5-epimerase) and RmlD (dTDP-4-dehydrorhamnose reductase), coupled enzyme assay
Protocol description: RmlC and RmlD coupled enzyme inhibitors, primary screen, biochemical, 384-well, compound mixtures, retest (AID 1532)
Study conditions: 384-well mixture HTS, at 5.5 µM, active compounds read high
Among all 110,000 compounds or so, about 420 (0.38%) were called active. This excerpt belongs to a sample that is enriched for actives.
Measure: inhibition

Prompt: I am curious: what inhibition value has been reported for COc1ccc(C(CC(=O)N2CCN(c3ccccc3)CC2)c2c(O)cc(OC)cc2OC)cc1 (stereo not given) ?
Completion: 0.73% (inactive)

Prompt: And then `C=CCSc1nnc2c(n1)-c1cccc3cccc-2c13` , what is it?
Completion: 10.4% (inactive)

Prompt: Please do the same for `O=C(C1=C[C@H](c2ccc(C(F)(F)F)cc2)C[C@H](OCc2ccc(CO)cc2)O1)N1CCN(Cc2ccccc2)CC1` as well.
Completion: 3.78% (inactive)

Prompt: Queued: `O=c1cc(-c2ccccc2)[nH]c2cc(F)ccc12`
Completion: 2.31% (inactive)

Prompt: Now try COc1ccc(CNC(=O)C2(CC3CC(c4ccccc4)=NO3)CCN(C(=O)c3cccc(O)c3)CC2)cc1 (stereo not given) .
Completion: -4.7% (inactive)

Prompt: Also `CN(Cc1ccccc1)C(=O)COc1ccccc1` ?
Completion: -9.33% (inactive)

Prompt: Now give it for `COc1cccc(-c2nnc(N(C)C(=O)c3ccno3)s2)c1` too.
Completion: 11.7% (inactive)

Prompt: Field entry: O=C(NCc1cc(C(F)(F)F)cc(C(F)(F)F)c1)C1CC(c2cccc(F)c2)=NO1 (stereo not given)
Completion: 2.58% (inactive)

Prompt: Request: `C[C@@H](C(=O)N1CCNCC1)n1cc(CCC(=O)O)nn1`
Completion: -10.6% (inactive)

Prompt: Consider next the compound `COC(C[C@H](O)CC(=O)COCc1ccccc1)OC` in the same way.
Completion: -6.86% (inactive)

----------
System: RmlC (dTDP-4-dehydrorhamnose 3,5-epimerase) and RmlD (dTDP-4-dehydrorhamnose reductase), coupled enzyme assay
Protocol description: RmlC and RmlD coupled enzyme inhibitors, primary screen, biochemical, 384-well, compound mixtures, retest (AID 1532)
Study conditions: 384-well mixture HTS, at 5.5 µM, active compounds read high
The campaign covered roughly 110,000 compounds. About 420 (0.38%) were called active. For the sample, actives were picked, then their nearest neighbours and some compounds at random.
Measure: inhibition (%)
Entry rule: numbers only, all in %.

Prompt: Request the reported inhibition associated with CC(C)NC(=O)NCCCCCCS(C)=O (configuration not stated)
Completion: -13.8

Prompt: // query: `CC(=O)Oc1ccc(NC(=O)CCC2CCCCC2)c(C(=O)O)c1`
Completion: 0.91

Prompt: Please do the same for `COC(=O)Cc1c(C)c2ccc(OCC(=O)NCc3ccc4c(c3)OCO4)cc2oc1=O` as well.
Completion: 12.6

Prompt: Param item: CC(Sc1nc2c([nH]c3ccccc32)c(=O)n1C)c1ccccc1 (configuration not stated)
Completion: -7.85

Prompt: And the next one, `Cc1c(NC(=O)c2coc(=O)c(Br)c2)c(=O)n(-c2ccccc2)n1C` ?
Completion: 75.6

Prompt: Can you handle `O=C(Oc1ccccc1)Oc1ccc2c(c1)oc(=O)c1ccccc12` next?
Completion: -16.4

Prompt: How about this compound: `O=C(NCC1CC1)c1onc(CSc2ccccc2)c1C(=O)NCC1CC1`
Completion: -3.31

Prompt: And what about the compound `C[C@@H]1CC[C@]2(O[C@@H](CCO)C[C@H](O)[C@H]2O)O1` ?
Completion: -20.2

Prompt: Entry COC(=O)CCCC1=CC2=CC(=O)C(C)(OC(=O)c3cccs3)C(=O)C2=CN1CC(C)C (configuration not stated) please
Completion: 6.81

Prompt: What do you get for `Cc1ccc(-c2csc(NCCc3nc4cc(Cl)c(Cl)cc4n3CCOCCO)n2)cc1` ?
Completion: 7.32

Prompt: # iterate: `O=C(Nc1cc2ccccc2oc1=O)C1CCCCC1`
Completion: -8.93

Prompt: Can you handle COc1ccc(CCNC(=O)C2CC3Cn4c(nc5cc(C)c(C)cc54)C3N2C)cc1 (configuration not stated) next?
Completion: 5.88

Prompt: What do you have for `Cn1ccnc1-c1nnn(-c2ccc(F)cc2)n1` ?
Completion: -8.61

Prompt: What do you have for `O=C1CC2(CCCC2)Oc2ccc(Cl)cc21` ?
Completion: 2.74

Prompt: Next compound: `C#CCO[C@@H]1C[C@H](n2cnc3c(=O)[nH]c(NC(=O)C(C)C)nc32)O[C@@H]1CO`
Completion: 17.4

Prompt: `COC(=O)Nc1c(C)n(C)n(-c2ccccc2)c1=O` ?
Completion: 3.72

Prompt: Repeat for the following compound: CC(=O)Oc1ccc2c(C)c(CC(C)O)c(=O)oc2c1 (configuration not stated)
Completion: 100

Prompt: What do we get for NC(=O)[C@H]1CC2(CC(c3cccc(NC(=O)[C@H]4CCC(=O)N4)c3)=NO2)CN1C(=O)c1ccccc1C(=O)c1ccccc1 (some centres not stated) ?
Completion: 20.3

Prompt: And then `C=C1CCN([C@@H](Cc2ccccc2)C(=O)N2CCOCC2)S(=O)(=O)c2ccccc21` , what is it?
Completion: -7.13

Prompt: Then this compound: `CCCCN1C(N)=NC[C@@H]1Cc1ccccc1`
Completion: -9.09

Prompt: Please answer likewise for CC1(c2nnc(-c3ccncc3)o2)CC(c2cccnc2)=NO1 (configuration not stated)
Completion: -44.9

Prompt: Again, but for COC(=O)c1ccc(C(NC(=O)OCc2ccccc2)/C(F)=C/[C@@H](C)C(=O)O)cc1 (some centres not stated)
Completion: 3.33

----------
Tested on: RmlC (dTDP-4-dehydrorhamnose 3,5-epimerase) and RmlD (dTDP-4-dehydrorhamnose reductase), coupled enzyme assay
Protocol description: RmlC and RmlD coupled enzyme inhibitors, primary screen, biochemical, 384-well, compound mixtures, retest (AID 1532)
Study conditions: 384-well mixture HTS, at 5.5 µM
The campaign covered roughly 110,000 compounds. About 420 (0.38%) were called active. No stated cut-off is given here; in the data, active means inhibition above about 30% (passing the limit was not always enough); inconclusive means no clear call, values can overlap the other calls. For the sample, actives were picked, then their nearest neighbours and some compounds at random.
Pick from active, inactive when you respond.

Prompt: How did this test come out for `COCc1cc(=O)[nH]c2cc(NC(=O)C(F)(F)F)c(C)cc12` ?
Completion: active

Prompt: Same for `C=C1CCN([C@H](C(=O)NCc2cc(OC)c(OC)c(OC)c2)C(C)C)S(=O)(=O)c2ccccc21`
Completion: inactive

Prompt: Try the molecule `CCO[C@H]1OC(C(=O)NCc2ccccc2)=C[C@@H](c2coc3ccccc3c2=O)[C@@H]1CCCO`
Completion: inactive

Prompt: And the next one, C#CCOCCOCCOCCNc1nc(N2CCN(C(=O)[C@H](CCC(=O)O)n3cc(C(N)CO)nn3)CC2)nc(N2CCN(C(=O)[C@H](CCCCN)n3cc(C(N)[C@H](C)CC)nn3)CC2)n1 (stereo partly drawn) ?
Completion: inactive

Prompt: Please give the result for `CCOC(=O)c1ccc(NC(=O)c2c(N)n(C)c(=O)[nH]c2=O)cc1` too.
Completion: inactive

Prompt: Now consider `CCOC(=O)c1ccccc1NC(=O)c1c(N)n(C)c(=O)[nH]c1=O` .
Completion: inactive

Prompt: Thanks! And `COc1ccc(OC)c2[nH]c(=O)c(CCNC(=O)C(C)(C)C)cc12` ?
Completion: inactive

Prompt: Same lookup for `NC(=O)CC[C@@H]1NC(=O)[C@@H]2CCCN2C(=O)c2cc([N+](=O)[O-])cc(F)c2NCCC[C@@H](C(N)=O)NC1=O` , please.
Completion: inactive

----------
System: RmlC (dTDP-4-dehydrorhamnose 3,5-epimerase) and RmlD (dTDP-4-dehydrorhamnose reductase), coupled enzyme assay
Protocol description: RmlC and RmlD coupled enzyme inhibitors, primary screen, biochemical, 384-well, compound mixtures, retest (AID 1532)
Study conditions: 384-well mixture HTS, at 5.5 µM, active compounds read high
Hit rate of the full screen: of about 110,000 compounds, about 420 (0.38%) were called active. Many of the other results were omitted from the sample, so actives are more common in it than they were.
For each entry below, report its inhibition value.
Unit % implied. Number only.

Prompt: Would you mind telling me what inhibition value was observed for CN(C(=O)C1CCOC1)c1nnc(-c2cccnc2)s1 (centres undefined) ?
Completion: -5.38

Prompt: Try this molecule too: `CCO[C@H]1OC(C(=O)N2CCN(Cc3ccccc3)CC2)=C[C@@H](c2cn(C(C)=O)c3ccccc23)[C@@H]1CCCO`
Completion: 77

Prompt: Repeat with `C[C@H]1CC[C@]2(O[C@@H](CCO)C[C@@H](O)[C@@H]2O)O1`
Completion: 6.2

Prompt: Same lookup for `OCC[C@H]1C[C@H](O)[C@@H](O)[C@]2(CCCCO2)O1` , please.
Completion: 7.31

Prompt: Same lookup for `COc1ccc(SCCN2CCN(CC(C)C)CCC2=O)cc1` , please.
Completion: 8.87

Prompt: Repeat for the following molecule: `C/C=C(/C)C(=O)O[C@@H]1c2cc3c(c4c2[C@@]2(CO4)C(=O)C(OC)=C(OC)C=C2C[C@@H](C)[C@H]1C)OCO3`
Completion: -2.38

Prompt: Please give the result for NC(=O)C[C@@H]1NC(=O)CNC(=O)c2cc([N+](=O)[O-])cc(I)c2NCCC(C(N)=O)NC1=O (some centres undefined) too.
Completion: -2.76

Prompt: Same question for `O=C1N[C@H](Cc2ccccc2)C(=O)N[C@H]1Cc1cn(S(=O)(=O)c2ccccc2)c2ccccc12` please.
Completion: -14.5

Prompt: Here is the next molecule: `COc1cccc(NC(=S)N(CCc2c(C)[nH]c3ccccc23)Cc2ccco2)c1`
Completion: -5.74

Values compiled from PubChem BioAssay AID1532.
